# Measurement target: Galectin-8 (Homo sapiens)
# Sequence (whole entry): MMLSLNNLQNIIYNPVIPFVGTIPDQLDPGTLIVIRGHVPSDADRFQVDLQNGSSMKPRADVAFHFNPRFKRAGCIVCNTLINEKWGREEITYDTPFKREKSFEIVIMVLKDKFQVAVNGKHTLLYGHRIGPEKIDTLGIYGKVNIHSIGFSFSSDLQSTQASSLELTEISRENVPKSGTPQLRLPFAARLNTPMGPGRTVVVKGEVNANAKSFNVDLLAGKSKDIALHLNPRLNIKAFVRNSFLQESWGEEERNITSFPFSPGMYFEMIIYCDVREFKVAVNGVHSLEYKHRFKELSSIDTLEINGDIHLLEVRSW
# Measurement protocol: Antagonist activity against human galectin-8N assessed as inhibition of galectin-8N at 2 mM by fluorescence polarization analysis relative to control

- Smiles data: "CO[C@@H]1O[C@H](CO)[C@H](O)[C@H](OC(=O)c2ccc(C)cc2)[C@@H]1OC(=O)c1cccc([N+](=O)[O-])c1"
  inhibition: "< 20%"
- Smiles data: "CO[C@@H]1O[C@H](CO)[C@H](O)[C@H](OC(=O)c2ccc(C)cc2)[C@@H]1OC(=O)c1ccccc1[N+](=O)[O-]"
  inhibition: "< 20%"
- Smiles data: "CO[C@@H]1O[C@H](CO)[C@H](O)[C@H](OC(=O)c2ccc(C)cc2)[C@@H]1OC(=O)c1ccc(F)cc1[N+](=O)[O-]"
  inhibition: "< 20%"
- Smiles data: "CO[C@@H]1O[C@H](CO)[C@H](O)[C@H](OC(=O)c2ccc(C)cc2)[C@@H]1OC(=O)c1ccc(C(F)(F)F)cc1[N+](=O)[O-]"
  inhibition: "< 20%"
- Smiles data: "CO[C@@H]1O[C@H](CO)[C@H](O)[C@H](OC(=O)c2ccc(C)cc2)[C@@H]1OC(C)=O"
  inhibition: "< 20%"
